For each of the compounds below, state its relative viability.
Test system: NCI-H1975
Assay overview: relative viability (nuclei count vs DMSO), 5 days (fraction); higher = more cells survive
Measurement conditions: first compound 0.01 µM

{"columns": ["Compound", "Target entity", "relative viability"],
 "data": [
  ["Cc1cn(-c2cc(NC(=O)c3ccc(C)c(Nc4nccc(-c5cccnc5)n4)c3)cc(C(F)(F)F)c2)cn1 [Nilotinib] + O=C(c1cc(Cc2n[nH]c(=O)c3ccccc23)ccc1F)N1CCN(C(=O)C2CC2)CC1 [Olaparib] (partner 8 µM)", "NCI-H1975", 0.786],
  ["Cc1cn(-c2cc(NC(=O)c3ccc(C)c(Nc4nccc(-c5cccnc5)n4)c3)cc(C(F)(F)F)c2)cn1 [Nilotinib] + Cc1cc(Nc2cc(N3CCN(C)CC3)nc(Sc3ccc(NC(=O)C4CC4)cc3)n2)n[nH]1 [Tozasertib] (partner 0.1 µM)", "NCI-H1975", 0.205],
  ["Cc1cn(-c2cc(NC(=O)c3ccc(C)c(Nc4nccc(-c5cccnc5)n4)c3)cc(C(F)(F)F)c2)cn1 [Nilotinib] + NC(=O)Nc1cc(-c2cccc(F)c2)sc1C(=O)N[C@H]1CCCNC1 [AZD7762] (partner 0.2 µM)", "NCI-H1975", 0.744]
]}

Fill in relative viability for each of the 2 compounds listed.
1. Cc1cn(-c2cc(NC(=O)c3ccc(C)c(Nc4nccc(-c5cccnc5)n4)c3)cc(C(F)(F)F)c2)cn1 [Nilotinib] + CC(=O)Nc1cccc(-n2c(=O)n(C3CC3)c(=O)c3c(Nc4ccc(I)cc4F)n(C)c(=O)c(C)c32)c1 [Trametinib] (partner 0.02 µM)
2. Cc1cn(-c2cc(NC(=O)c3ccc(C)c(Nc4nccc(-c5cccnc5)n4)c3)cc(C(F)(F)F)c2)cn1 [Nilotinib] + C[C@@H](Oc1cc(-c2cnn(C3CCNCC3)c2)cnc1N)c1c(Cl)ccc(F)c1Cl [Crizotinib] (partner 1 µM)

1: 0.308; 2: 1.16

----------
System: 201T
Assay overview: relative viability (nuclei count vs DMSO), 5 days (fraction); higher = more cells survive
Measurement conditions: first compound 0.253 µM
Would you mind telling me the reported relative viability of each entry?
One number for each entry.

As a guide, the following entries are already answered.
{"columns": ["Compound", "Recorded value"],
 "data": [
  ["Nc1cccc2c1CN(C1CCC(=O)NC1=O)C2=O (stereo not drawn) [Lenalidomide] + Cc1cc(Nc2cc(N3CCN(C)CC3)nc(Sc3ccc(NC(=O)C4CC4)cc3)n2)n[nH]1 [Tozasertib] (partner 0.1 µM)", 1.01],
  ["Nc1cccc2c1CN(C1CCC(=O)NC1=O)C2=O (stereo not drawn) [Lenalidomide] + C[C@@H](Oc1cc(-c2cnn(C3CCNCC3)c2)cnc1N)c1c(Cl)ccc(F)c1Cl [Crizotinib] (partner 1 µM)", 1.05]
]}

Kindly consider the entry below.
Just so you know, measured relative viability for Nc1cccc2c1CN(C1CCC(=O)NC1=O)C2=O (stereo not drawn) [Lenalidomide] + COc1cccc2cc(-c3nc([C@H]4CC[C@H](C(=O)O)CC4)n4ncnc(N)c34)[nH]c12 [OSI-027] (partner 0.5 µM) came out at 0.767

----------
Assign relative viability to each entry below.
System: NCI-H647
Assay overview: relative viability (nuclei count vs DMSO), 5 days (fraction); higher = more cells survive
Measurement conditions: first compound 2 µM
Answers are plain numbers.

Would you please look over these solved cases?
{"columns": ["Compound", "relative viability"],
 "data": [
  ["CN1CCN(CCOc2cc(OC3CCOCC3)c3c(Nc4c(Cl)ccc5c4OCO5)ncnc3c2)CC1 [Saracatinib] + C[C@@H](Oc1cc(-c2cnn(C3CCNCC3)c2)cnc1N)c1c(Cl)ccc(F)c1Cl [Crizotinib] (partner 1 µM)", 0.411],
  ["Cc1csc(=NC2CCCCC2)n1/N=C/c1ccc(O)c(O)c1O [MIM1] + Nc1ncn([C@H]2C[C@H](O)[C@@H](CO)O2)c(=O)n1 [Decitabine] (partner 2 µM)", 0.397],
  ["Cc1csc(=NC2CCCCC2)n1/N=C/c1ccc(O)c(O)c1O [MIM1] + CCNC(=O)c1noc(-c2cc(C(C)C)c(O)cc2O)c1-c1ccc(CN2CCOCC2)cc1 [Luminespib] (partner 0.01 µM)", 0.18]
]}

Quick one: give me relative viability for each item below, same order please.
1. Cc1csc(=NC2CCCCC2)n1/N=C/c1ccc(O)c(O)c1O [MIM1] + Cc1nc(NC(=O)N2CCC[C@H]2C(N)=O)sc1-c1ccnc(C(C)(C)C(F)(F)F)c1 [Alpelisib] (partner 2 µM)
2. Cc1csc(=NC2CCCCC2)n1/N=C/c1ccc(O)c(O)c1O [MIM1] + C[C@@H](Oc1cc(-c2cnn(C3CCNCC3)c2)cnc1N)c1c(Cl)ccc(F)c1Cl [Crizotinib] (partner 1 µM)
3. CN1CCN(CCOc2cc(OC3CCOCC3)c3c(Nc4c(Cl)ccc5c4OCO5)ncnc3c2)CC1 [Saracatinib] + CC(=O)Nc1cccc(-n2c(=O)n(C3CC3)c(=O)c3c(Nc4ccc(I)cc4F)n(C)c(=O)c(C)c32)c1 [Trametinib] (partner 0.02 µM)
4. Cc1csc(=NC2CCCCC2)n1/N=C/c1ccc(O)c(O)c1O [MIM1] + O=C(CCCCCCC(=O)Nc1ccccc1)NO [Vorinostat] (partner 1 µM)
5. CN1CCN(CCOc2cc(OC3CCOCC3)c3c(Nc4c(Cl)ccc5c4OCO5)ncnc3c2)CC1 [Saracatinib] + O=C(CCCCCCC(=O)Nc1ccccc1)NO [Vorinostat] (partner 1 µM)

[1.12, 1.02, 0.255, 0.614, 0.45]

Each compound below has a reported value. Please supply its relative viability.
1. CN1CCN(CCOc2cc(OC3CCOCC3)c3c(Nc4c(Cl)ccc5c4OCO5)ncnc3c2)CC1 [Saracatinib] + O=C(c1cc(Cc2n[nH]c(=O)c3ccccc23)ccc1F)N1CCN(C(=O)C2CC2)CC1 [Olaparib] (partner 8 µM)
2. CN1CCN(CCOc2cc(OC3CCOCC3)c3c(Nc4c(Cl)ccc5c4OCO5)ncnc3c2)CC1 [Saracatinib] + C[C@]1(O)C[C@@H](c2nc(-c3ccc4ccc(-c5ccccc5)nc4c3)c3c(N)nccn32)C1 [Linsitinib] (partner 1 µM)
3. CN1CCN(CCOc2cc(OC3CCOCC3)c3c(Nc4c(Cl)ccc5c4OCO5)ncnc3c2)CC1 [Saracatinib] + CC(=O)c1c(C)c2cnc(Nc3ccc(N4CCNCC4)cn3)nc2n(C2CCCC2)c1=O [Palbociclib] (partner 0.5 µM)

1: 0.364; 2: 0.514; 3: 0.265

The values you see were collected from the supplement of paper PMC10307832.
